Tested on: HCT-116 cell line
ASSAY INFO: Inhibition of cell growth, MTT tetrazolium salt assay
Format: cell-based
CONDITION DETAILS: HCT-116 cells, 0.1 μM compound
Here, each record is paired with measured HCT-116 % Inhibition at 0.1 μM data.
Please give a number only; it is taken to be in %.

Tell me its HCT-116 % Inhibition at 0.1 μM given C=CCN(CC=C)C(=O)c1ccc(Nc2nc(N)c(C(=O)c3c(F)cccc3F)s2)cc1 [Example G272] as the entry.
10

Others:
Note HCT-116 % Inhibition at 0.1 μM for the compound shown: Cc1ccc(CNC(=O)c2ccc(Nc3nc(N)c(C(=O)c4c(F)cccc4F)s3)cc2)cc1C [Example G338]
18

Supply measured HCT-116 % Inhibition at 0.1 μM of Nc1nc(Nc2ccc(C(=O)NC3c4ccccc4CC3O)cc2)sc1C(=O)c1c(F)cccc1F (stereo not shown) [Example G376] in your reply.
27

Identify HCT-116 % Inhibition at 0.1 μM associated with the compound CC(C)(C)C1CCC(NC(=O)c2ccc(Nc3nc(N)c(C(=O)c4c(F)cccc4F)s3)cc2)CC1 (stereo not shown) [Example G267]
24

Please report the measured HCT-116 % Inhibition at 0.1 μM for Nc1nc(Nc2ccc(C(=O)NCc3ccc(F)cc3F)cc2)sc1C(=O)c1c(F)cccc1F [Example G301]
18

For the compound Cc1ccc(NC(=O)c2ccc(Nc3nc(N)c(C(=O)c4c(F)cccc4F)s3)cc2)nc1 [Example G352] , report HCT-116 % Inhibition at 0.1 μM.
24

State, in one line, measured HCT-116 % Inhibition at 0.1 μM of CC[C@H](C)[C@@H](CO)NC(=O)c1ccc(Nc2nc(N)c(C(=O)c3c(F)cccc3F)s2)cc1 [Example G327]
8

###

ASSAYED SYSTEM: CDK2/cyclin A (Homo sapiens, UniProt P24941)
Construct: made in house; host or cells: CDK2: insect cells (baculovirus); cyclin A: E. coli
ASSAY INFO: Inhibition of CDK2/cyclin A retinoblastoma kinase activity (Ki; % inhibition)
Type: biochemical
CONDITION DETAILS: at 0.03 μM
Examples of compounds with documented CDK2 % Inhibition at 0.03 μM follow.
Give the value in % but do not write % after it.

Please respond with reported CDK2 % Inhibition at 0.03 μM (system CDK2/cyclin A (Homo sapiens, UniProt P24941)) for Nc1nc(Nc2ccc(C(=O)Nc3ccc4c(c3)S(=O)(=O)NC4=O)cc2)sc1C(=O)c1c(F)cccc1F [Example G101] .
11

Quote CDK2/cyclin A (Homo sapiens, UniProt P24941) CDK2 % Inhibition at 0.03 μM for entry NC(=O)c1ccc(NC(=O)c2ccc(Nc3nc(N)c(C(=O)c4c(F)cccc4F)s3)cc2)cc1 [Example G85] .
7

Provide CDK2 % Inhibition at 0.03 μM, tested on CDK2/cyclin A (Homo sapiens, UniProt P24941), for CCC(NC(=O)c1ccc(Nc2nc(N)c(C(=O)c3c(F)cccc3F)s2)cc1)c1ccccc1 (stereo not shown) [Example G151] .
16

Let us examine a further case.
Quote CDK2 % Inhibition at 0.03 μM with test system CDK2/cyclin A (Homo sapiens, UniProt P24941) for CC(CNC(=O)c1ccc(Nc2nc(N)c(C(=O)c3c(F)cccc3F)s2)cc1)N(C)C (stereo not shown) [Example G92]
−7

###

ASSAYED SYSTEM: human CDK4/cyclin D3 (Homo sapiens)
Construct: made in house; host or cells: insect cells co-infected with baculovirus vectors
ASSAY INFO: Inhibition of CDK4/cyclin D retinoblastoma kinase activity (Ki; % inhibition)
Type: biochemical
CONDITION DETAILS: 0.03 μM compound
READOUT TYPE: CDK4 % Inhibition at 0.03 μM
# include the unit after the value

Example cases with answers are listed next.
Give the reported CDK4 % Inhibition at 0.03 μM for this compound. CN(C)CCCN1CCN(C(=O)c2ccc(Nc3nc(N)c(C(=O)c4c(F)cccc4F)s3)cc2)CC1 [Example G357]
17%

Please give measured CDK4 % Inhibition at 0.03 μM of the following entry: Nc1nc(Nc2ccc(C(=O)N3CCN(c4ccncc4)CC3)cc2)sc1C(=O)c1c(F)cccc1F [Example G311]
46%

Given the compound CCCc1ccc(NC(=O)c2ccc(Nc3nc(N)c(C(=O)c4c(F)cccc4F)s3)cc2)cc1 [Example G204] , write its reported CDK4 % Inhibition at 0.03 μM.
10%

Further cases:
Answer with the recorded CDK4 % Inhibition at 0.03 μM for the compound listed here: Nc1nc(Nc2ccc(C(=O)Nc3ccc(O)c(Cl)c3)cc2)sc1C(=O)c1c(F)cccc1F [Example G394]
11%

###

Reported CDK4 % Inhibition at 0.03 μM values follow for various compounds
ASSAYED SYSTEM: human CDK4/cyclin D3 (Homo sapiens, UniProt P11802)
Construct: made in house; host or cells: insect cells co-infected with baculovirus vectors
Sequence (P11802 whole entry): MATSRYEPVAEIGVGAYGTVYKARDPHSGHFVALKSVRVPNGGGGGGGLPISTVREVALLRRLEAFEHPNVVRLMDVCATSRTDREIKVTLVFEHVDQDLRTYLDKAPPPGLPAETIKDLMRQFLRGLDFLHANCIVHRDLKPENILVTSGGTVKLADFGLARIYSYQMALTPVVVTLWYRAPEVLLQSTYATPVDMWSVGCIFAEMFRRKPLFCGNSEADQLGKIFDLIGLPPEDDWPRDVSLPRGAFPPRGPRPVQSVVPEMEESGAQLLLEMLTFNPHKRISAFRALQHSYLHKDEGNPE
Sequence (P30281 1-264 partner limits assumed): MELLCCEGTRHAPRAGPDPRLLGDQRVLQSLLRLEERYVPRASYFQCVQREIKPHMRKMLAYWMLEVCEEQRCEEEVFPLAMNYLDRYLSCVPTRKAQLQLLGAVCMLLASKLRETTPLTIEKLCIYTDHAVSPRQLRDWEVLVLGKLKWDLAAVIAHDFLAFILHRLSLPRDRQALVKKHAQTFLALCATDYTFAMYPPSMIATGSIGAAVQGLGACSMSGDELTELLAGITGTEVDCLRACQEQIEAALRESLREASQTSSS
ASSAY INFO: Inhibition of CDK4/cyclin D retinoblastoma kinase activity (Ki; % inhibition)
Format: biochemical
CONDITION DETAILS: 0.03 μM compound

Known results for compounds:
Please look at this compound and report its CDK4 % Inhibition at 0.03 μM: CCCCN(Cc1ccccc1)C(=O)c1ccc(Nc2nc(N)c(C(=O)c3c(F)cccc3F)s2)cc1
0%

For the compound Nc1nc(Nc2ccc(C(=O)NCCCCO)cc2)sc1C(=O)c1c(F)cccc1F , give its reported CDK4 % Inhibition at 0.03 μM.
11%

Read off the recorded CDK4 % Inhibition at 0.03 μM for Cc1ccc(CNC(=O)c2ccc(Nc3nc(N)c(C(=O)c4c(F)cccc4F)s3)cc2)cc1
26%

Tell us which CDK4 % Inhibition at 0.03 μM value is on record for CC(C)(CO)CNC(=O)c1ccc(Nc2nc(N)c(C(=O)c3c(F)cccc3F)s2)cc1
24%

More entries:
Respond only with CDK4 % Inhibition at 0.03 μM recorded for Nc1nc(Nc2ccc(C(=O)NCCCCc3ccccc3)cc2)sc1C(=O)c1c(F)cccc1F
14%

Input CCN(CC)CCN(C)C(=O)c1ccc(Nc2nc(N)c(C(=O)c3c(F)cccc3F)s2)cc1 , output reported CDK4 % Inhibition at 0.03 μM.
30%

Answer with the recorded CDK4 % Inhibition at 0.03 μM for the compound listed here: Nc1nc(Nc2ccc(C(=O)Nc3ccc(Nc4ccccc4)cc3)cc2)sc1C(=O)c1c(F)cccc1F
11%

// Input: Cc1cccc(CNC(=O)c2ccc(Nc3nc(N)c(C(=O)c4c(F)cccc4F)s3)cc2)c1 . Output its CDK4 % Inhibition at 0.03 μM only.
9%

###

System: HCT-116 cell line
ASSAY INFO: Inhibition of cell growth, MTT tetrazolium salt assay
Format: cell-based
CONDITION DETAILS: HCT-116, at 0.1 μM
Recorded HCT-116 % Inhibition at 0.1 μM, one value per entry.
Please give a number only; it is taken to be in %.

// known answers, use as guide
Note down HCT-116 % Inhibition at 0.1 μM recorded for CCCOCCNC(=O)c1ccc(Nc2nc(N)c(C(=O)c3c(F)cccc3F)s2)cc1 [Example G165]
0

Identify the reported HCT-116 % Inhibition at 0.1 μM for the following entry. Nc1ccc(CCNC(=O)c2ccc(Nc3nc(N)c(C(=O)c4c(F)cccc4F)s3)cc2)cc1 [Example G105]
24

Using the record for CCOC(=O)Cc1ccc(NC(=O)c2ccc(Nc3nc(N)c(C(=O)c4c(F)cccc4F)s3)cc2)cc1 [Example G130] , state its measured HCT-116 % Inhibition at 0.1 μM.
0

Identify measured HCT-116 % Inhibition at 0.1 μM associated with CC(=O)NCCNC(=O)c1ccc(Nc2nc(N)c(C(=O)c3c(F)cccc3F)s2)cc1 [Example G142]
0

Please report the measured HCT-116 % Inhibition at 0.1 μM for CN(C)CCCNC(=O)c1ccc(Nc2nc(N)c(C(=O)c3c(F)cccc3F)s2)cc1 [Example G119]
0

Further cases:
Dear colleague, please send me the reported HCT-116 % Inhibition at 0.1 μM for Nc1nc(Nc2ccc(C(=O)NCCOc3ccccc3)cc2)sc1C(=O)c1c(F)cccc1F [Example G113] when you can.
26

Check the records and state HCT-116 % Inhibition at 0.1 μM for Nc1nc(Nc2ccc(C(=O)NCc3ccccc3)cc2)sc1C(=O)c1c(F)cccc1F [Example G181]
28

State its HCT-116 % Inhibition at 0.1 μM for this compound: CC(C)OCCCNC(=O)c1ccc(Nc2nc(N)c(C(=O)c3c(F)cccc3F)s2)cc1 [Example G135]
0

Dear colleague, please send me the reported HCT-116 % Inhibition at 0.1 μM for CCOCCNC(=O)c1ccc(Nc2nc(N)c(C(=O)c3c(F)cccc3F)s2)cc1 [Example G136] when you can.
0

Hello, please tell me recorded HCT-116 % Inhibition at 0.1 μM for this one: Nc1nc(Nc2ccc(C(=O)NC3CC3)cc2)sc1C(=O)c1c(F)cccc1F [Example G123]
4

Return the recorded HCT-116 % Inhibition at 0.1 μM value; entry: Nc1nc(Nc2ccc(C(=O)Nc3ccc4c(c3)S(=O)(=O)C=C4)cc2)sc1C(=O)c1c(F)cccc1F [Example G115]
30

Given Nc1nc(Nc2ccc(C(=O)NCCCN3CCCC3)cc2)sc1C(=O)c1c(F)cccc1F [Example G158] , respond with its HCT-116 % Inhibition at 0.1 μM.
0

Find the measured HCT-116 % Inhibition at 0.1 μM of Nc1nc(Nc2ccc(C(=O)NC3CCc4ccccc43)cc2)sc1C(=O)c1c(F)cccc1F (stereo not shown) [Example G95] and report it.
32

Assign HCT-116 % Inhibition at 0.1 μM to the following record: Nc1nc(Nc2ccc(C(=O)NCCCN3CCCC3=O)cc2)sc1C(=O)c1c(F)cccc1F [Example G88]
24

Supply measured HCT-116 % Inhibition at 0.1 μM of CC(C)CCCC(C)NC(=O)c1ccc(Nc2nc(N)c(C(=O)c3c(F)cccc3F)s2)cc1 (stereo not shown) [Example G141] in your reply.
0

Give a short answer stating reported HCT-116 % Inhibition at 0.1 μM for CC1CC(NC(=O)c2ccc(Nc3nc(N)c(C(=O)c4c(F)cccc4F)s3)cc2)CC(C)(C)C1 (stereo not shown) [Example G112] .
6
